The origin of these recorded values is paper PMC4339548.

# protocol-summary: Urinary excretion of oral sugar probes
# Assay type: in vivo, human
# measurement-setup: 0-5 hour urine collection; healthy subjects, oral cocktail; mean ± SD/SE
assay-metric: Percent urinary excretion of oral sugar probe (%)

compound	assay-value
OC[C@@H](O)[C@@H](O)[C@H](O)[C@H](O)CO	15.6
OC[C@H]1O[C@H](O[C@]2(CCl)O[C@H](CCl)[C@@H](O)[C@@H]2O)[C@H](O)[C@@H](O)[C@H]1Cl	0.5

(I) OC[C@H]1O[C@@](CO)(O[C@H]2O[C@H](CO)[C@@H](O)[C@H](O)[C@H]2O)[C@@H](O)[C@@H]1O [Sucrose, α-D-glucopyranosyl-β-D-fructofuranoside]
(II) OC[C@H]1O[C@@H](O[C@@H]2[C@@H](CO)O[C@](O)(CO)[C@H]2O)[C@H](O)[C@@H](O)[C@H]1O
Ask: // max by Percent urinary excretion of oral sugar probe over [ I , II ] I would appreciate it if you answered with the label of your choice.
Reply: II
